The measured values listed here are drawn from PubChem BioAssay.

# System: F380Y/beta2Delta
# procedure-text: modulators of BK channel variants, profiling panel, selectivity assay, cell-based, U2OS BacMam, thallium flux, beta subunits (AID 1259406);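 note: initial slope of Thallos dye fluorescence rise after thallium is added; log ratio against the mean of 0.3% DMSO vehicle wells on the same plate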
# experimental-conditions: at 30 µM
observed-property: log fold change Tl+ flux
// print number alone

Use the examples below as a reference point.
COc1ccc(CCN)cc1OC | -0.0175
C=CCN1CC[C@]23c4c5ccc(O)c4O[C@H]2C(=O)CC[C@@]3(O)[C@H]1C5 | 0.0141
CN1CCN(C(=O)O[C@H]2c3nccnc3C(=O)N2c2ccc(Cl)cn2)CC1 | 0.0361
COc1ccc(C(CN(C)C)C2(O)CCCCC2)cc1 (configuration not stated) | -0.0103
O=C(O)C(Cl)Cl | -0.00825
Cc1ncc2n1-c1ccc(Cl)cc1C(c1ccccc1F)=NC2 | -0.205
CN=C1CN(O)C(c2ccccc2)=c2cc(Cl)ccc2=N1 | 0.0735
c1ccc2c(c1)Nc1ccccc1S2 | 0.033

Here is the next item to consider.
stdin: Return reported log fold change Tl+ flux; argument: `C[C@]12CCC(=O)C[C@@H]1CC[C@@H]1[C@@H]2CC[C@@]2(C)[C@H]1CC[C@]2(C)O`
stdout: 0.0319

====

# System: Aerobactin synthetase IucA (Klebsiella pneumoniae hvKP1)
# procedure-text: Biochemical IucA enzyme inhibition primary screen of the Spectrum library (AID 1346200);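 note: 100% = wells without compound and 0% = wells lacking enzyme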
# experimental-conditions: malachite green pyrophosphate, A620, at 8 µM, stronger effect = lower value
Recorded activity remaining values for a group of compounds are listed next.
Numeric answer only, unit % assumed.

stdin: Return reported activity remaining; argument: `COc1cc(O)cc(/C=C/c2ccccc2)c1`
stdout: 104

stdin: Return reported activity remaining; argument: `COc1cc(C(=O)O[C@H]2CC[C@@]3(C)[C@@H]4CC[C@H]5[C@]6(O)C[C@H](O)[C@@]7(O)[C@@H](CN8C[C@@H](C)CC[C@H]8[C@@]7(C)O)[C@]6(O)C[C@@]53OC24O)cc(OC)c1OC`
stdout: 123

====

# procedure-text: stimulators of nuclear beta-catenin in C2C12, primary screen, imaging, WNT3A-conditioned medium, mouse C2C12, NPC library (AID 1117326)
# experimental-conditions: at 10 µM, stronger effect = higher value
Active and inactive are the calls of the source. Rule as the data show it: active = nuclear beta-catenin stimulation mostly above about 4.2% (no sharp cut-off); inactive = mostly below about 10%.
Recorded nuclear beta-catenin stimulation values for a group of compounds are listed next.

CN1CCC(O)(c2ccc(F)cc2)C(C(=O)c2ccc(F)cc2)C1 (centres undefined) | 20.8% (inactive)
Clc1ccc(C(OCCN2CCCCC2)c2ccccc2)cc1 (centres undefined) | 3.4% (inactive)
CC[N+]1(CCOC(=O)C(O)(c2ccccc2)c2ccccc2)CCCCC1 | -0.3% (inactive)
CNC(=O)NC(O)C(Cl)(Cl)Cl (centres undefined) | -0.4% (inactive)

stdin: Return reported nuclear beta-catenin stimulation; argument: `COc1ccccc1N1CCNCC1`
stdout: 0.2% (inactive)

stdin: Return reported nuclear beta-catenin stimulation; argument: `O=C(CBr)Nc1ccc(Cl)cc1C(=O)c1ccccc1F`
stdout: -1.3% (inactive)

stdin: Return reported nuclear beta-catenin stimulation; argument: `C[N+](C)(C)CCOC(=O)C(O)(c1ccccc1)c1ccccc1`
stdout: -1.8% (inactive)

stdin: Return reported nuclear beta-catenin stimulation; argument: `C=C1CC[C@@]2(O)[C@H]3Cc4ccc(O)c5c4[C@@]2(CCN3CC2CC2)[C@H]1O5`
stdout: 0.5% (inactive)

stdin: Return reported nuclear beta-catenin stimulation; argument: `CN(C)[C@@H]1C(=O)C(C(N)=O)=C(O)[C@@]2(O)C(=O)C3=C(O)c4c(O)cccc4[C@@](C)(O)[C@H]3[C@H](O)[C@@H]12`
stdout: -2.3% (inactive)

stdin: Return reported nuclear beta-catenin stimulation; argument: CCCC(C)(COC(N)=O)COC(=O)NC(C)C (centres undefined)
stdout: 0.1% (inactive)

====

Recorded normalised cell number values for a group of molecules are listed next.
# procedure-text: differential killing of epithelial or mesenchymal cells, primary screen, imaging, PC-3E GFP, TEM4-18 mCherry, co-culture (AID 1345086);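 note: cells exposed to compound for 72 h before imaging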
# experimental-conditions: imaging cell counts, measured here: mesenchymal TEM4-18 mCherry cell survival, at 1 µM
// print number alone

Use the examples below as a reference point.
O=[N+]([O-])O[C@H]1CO[C@H]2[C@@H]1OC[C@H]2O[N+](=O)[O-] | 1.33
Cc1nccc2c1[nH]c1ccccc12 | 0.87

Here is the next item to consider.
stdin: Return reported normalised cell number; argument: CC(C)N(CCC(C(N)=O)(c1ccccc1)c1ccccn1)C(C)C (stereo not drawn)
stdout: 1.34

====

Recorded normalised cell number values for a group of molecules are listed next.
# procedure-text: differential killing of epithelial or mesenchymal cells, primary screen, imaging, PC-3E GFP, TEM4-18 mCherry, co-culture (AID 1345086);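 note: cells exposed to compound for 72 h before imaging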
# experimental-conditions: imaging cell counts, measured here: mesenchymal TEM4-18 mCherry cell survival, at 1 µM

Use the examples below as a reference point.
CN1C[C@H](C(=O)N[C@]2(C)O[C@@]3(O)C4CCCN4C(=O)[C@H](Cc4ccccc4)N3C2=O)C=C2c3cccc4[nH]cc(c34)C[C@H]21 (some centres undefined) | 1
CNC(C)(C)Cc1ccccc1 | 1
C/C=C(/C)C(=O)O[C@H]1CC[C@@]2(C)[C@@H]3CC[C@H]4[C@]5(O)C[C@H](O)[C@@]6(O)[C@@H](CN7C[C@@H](C)CC[C@H]7[C@@]6(C)O)[C@]5(O)C[C@@]42O[C@]13O | 1

Here is the next item to consider.
stdin: Return reported normalised cell number; argument: `COc1ccc2[nH]cc(CCN)c2c1`
stdout: 0.99

====

# procedure-text: sensitizers of A549 cells to miR-34 induction, primary screen, imaging, A549 dox-inducible miR-34, nuclei and caspase counts (AID 1347080)
# experimental-conditions: A549 miR-34 inducible, Hoechst nuclei count, 48 h; measured here: total cells with miR-34 induction; stronger effect = lower value
Entries whose cell count is below 10000 take Condition met; entries at or above 10000 take Condition not met.

// below: answered compounds
CCN1C[C@]2(COC)CC[C@H](O)[C@]34C1[C@](O)([C@@H](OC)[C@H]23)[C@@]1(O)C[C@H](OC)[C@H]2C[C@@H]4[C@@H]1[C@H]2OC | Condition met
Nc1ccc([As](=O)(O)O)cc1 | Condition not met
Cc1ccc(C[N+](C)(C)C)o1 | Condition met

As a next step, examine the compound that follows.
stdin: Please let me know if `CCCCCC=CCC=CCC=CCC=CCCCC(=O)Nc1ccc(O)cc1` shows cell count below 10000.
stdout: Condition met

====

# Tested on: Aerobactin synthetase IucA (Klebsiella pneumoniae, hypervirulent)
# procedure-text: IucA enzyme inhibition, biochemical, LOPAC library, absorbance readout (AID 1346212);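 note: 100% = no compound wells and 0% = no enzyme wells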
# experimental-conditions: IucA enzyme assay, absorbance (OD) readout; stronger effect = lower value; concentration not given here
Recorded remaining activity values for a group of molecules are listed next.
Numeric answer only, unit % assumed.

c1cc(CN2CCCCC2)cc(OCCCNc2nc3ccccc3s2)c1 | 101
CCCCc1ccc(C(=O)O)nc1 | 102
O=C(Nc1nc2ccccc2n1CCN1CCOCC1)c1cccc([N+](=O)[O-])c1 | 120
NC(N)=NC(=O)c1nc(Cl)c(N)nc1N | 105

Here is the next item to consider.
stdin: Return reported remaining activity; argument: `NC[C@H](O)c1ccc(O)c(O)c1`
stdout: 118

====

# System: Aerobactin synthetase IucA (Klebsiella pneumoniae hvKP1)
# procedure-text: Biochemical IucA enzyme inhibition primary screen of the Spectrum library (AID 1346200);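 note: 100% = wells without compound and 0% = wells lacking enzyme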
# experimental-conditions: malachite green pyrophosphate, A620, at 8 µM, stronger effect = lower value
observed-property: activity remaining (%)
Numeric answer only, unit % assumed.

stdin: Return reported activity remaining; argument: CO[C@H]1C[C@H](O[C@H]2[C@H](C)[C@@H](OC3O[C@H](C)C[C@H](N(C)C)[C@H]3OC(C)=O)[C@@H](C)C[C@]3(CO3)C(=O)[C@H](C)[C@@H](OC(C)=O)[C@@H](C)[C@@H](C)OC(=O)[C@@H]2C)O[C@@H](C)[C@@H]1OC(C)=O (some centres undefined)
stdout: 116

stdin: Return reported activity remaining; argument: `O=C1c2c(O)cccc2Cc2cccc(O)c21`
stdout: 92.3

====

Recorded cell count values for a group of compounds are listed next.
# procedure-text: sensitizers of A549 cells to miR-34 induction, primary screen, imaging, A549 dox-inducible miR-34, nuclei and caspase counts (AID 1347080)
# experimental-conditions: A549 miR-34 inducible, Hoechst nuclei count, 48 h; measured here: total cells with miR-34 induction; stronger effect = lower value

Oc1ccc2c3c1OC1c4[nH]c5ccccc5c4C[C@@]4(O)C(C2)N(CC2CC2)CC[C@]314 (stereo partly drawn) | 8150
C[C@]12CCC(=O)C=C1CC[C@@H]1[C@@H]2C(=O)C[C@]2(C)C(=O)CC[C@@H]12 | 9500
COc1ccc(/C=C\c2cc(OC)cc(OC)c2)cc1 | 1220
C1CCN(C2CCNCC2)CC1 | 8270

stdin: Return reported cell count; argument: `O=C(NCC1CCOCC1)c1cnc(Nc2ccc(Cl)cc2Cl)nc1C(F)(F)F`
stdout: 8190
